- TARGET SYSTEM: Cyclin-dependent kinase 2/cyclin A (Homo sapiens, UniProt P24941)
- ASSAY DETAILS: Inhibition of recombinant human CDK2/cyclin A after 30 mins by scintillation counting
Would you mind telling me the reported log10 of IC50 of each entry?
Form field - Quantity: IC50; Unit: nM; Scale: log10

# compound CC[C@H](CO)Nc1nc(Nc2ccncc2)c2ncn(C(C)C)c2n1 ; its log10 of IC50 = 1.58

# compound CC(C)[C@H](CO)Nc1nc(Nc2cccnc2)c2ncn(C(C)C)c2n1 ; its log10 of IC50 = 1.26

# compound CC(C)n1cnc2c(Nc3ccccn3)nc(Cl)nc21 ; its log10 of IC50 = 3.79

# compound CC[C@@H](CO)Nc1nc(Nc2ccncc2)c2ncn(C(C)C)c2n1 ; its log10 of IC50 = 1.70

# compound CC[C@H](CO)Nc1nc(Nc2cccnc2)c2ncn(C(C)C)c2n1 ; its log10 of IC50 = 1.70

# compound CC[C@@H](CO)Nc1nc(Nc2cncnc2)c2ncn(C(C)C)c2n1 ; its log10 of IC50 = 1.36

# compound CC(C)n1cnc2c(Nc3ccncc3)nc(Cl)nc21 ; its log10 of IC50 = 2.85

# compound CC(C)[C@H](CO)Nc1nc(Nc2ccncn2)c2ncn(C(C)C)c2n1 ; its log10 of IC50 = 2.52

# compound CC[C@H](CO)Nc1nc(Nc2ccccn2)c2ncn(C(C)C)c2n1 ; its log10 of IC50 = 3.00

# compound CC(C)n1cnc2c(Nc3ccnnc3)nc(Cl)nc21 ; its log10 of IC50 = 3.20

# compound CC(C)[C@H](CO)Nc1nc(Nc2ccccn2)c2ncn(C(C)C)c2n1 ; its log10 of IC50 = 2.90

# compound CC(C)[C@@H](CO)Nc1nc(Nc2cccnc2)c2ncn(C(C)C)c2n1 ; its log10 of IC50 = 2.08

# compound CC[C@H](CO)Nc1nc(Nc2cncnc2)c2ncn(C(C)C)c2n1 ; its log10 of IC50 = 1.26

# compound CC(C)[C@H](CO)Nc1nc(Nc2ccnnc2)c2ncn(C(C)C)c2n1 ; its log10 of IC50 = 1.45

# compound CC[C@@H](CO)Nc1nc(Nc2ccnnc2)c2ncn(C(C)C)c2n1 ; its log10 of IC50 = 1.46

# compound CC(C)[C@@H](CO)Nc1nc(Nc2ccncn2)c2ncn(C(C)C)c2n1 ; its log10 of IC50 = 2.90

# compound CC[C@@H](CO)Nc1nc(Nc2cccnc2)c2ncn(C(C)C)c2n1 ; its log10 of IC50 = 1.15

# compound CC(C)[C@H](CO)Nc1nc(Nc2cncnc2)c2ncn(C(C)C)c2n1 ; its log10 of IC50 = 1.30

# compound CC(C)[C@@H](CO)Nc1nc(Nc2ccccn2)c2ncn(C(C)C)c2n1 ; its log10 of IC50 = 3.08

# compound CC(C)[C@@H](CO)Nc1nc(Nc2ncccn2)c2ncn(C(C)C)c2n1 ; its log10 of IC50 = 3.95

# compound CC(C)n1cnc2c(Nc3cncnc3)nc(Cl)nc21 ; its log10 of IC50 = 2.26

# compound CC[C@@H](CO)Nc1nc(Nc2ccncn2)c2ncn(C(C)C)c2n1 ; its log10 of IC50 = 3.30

###

- TARGET SYSTEM: Glycogen synthase kinase-3 (Sus scrofa, UniProt B2LUN4+I6LNT8)
- ASSAY DETAILS: Inhibition of porcine GSK-3alpha/beta using YRRAAVPPSPSLSRHSSPHQSpEDEEE as substrate measured after 30 mins by scintillation counting
Would you mind telling me the reported IC50 of each entry?
State the answer as a number, implicitly in µM.

# compound CC(C)[C@H](CO)Nc1nc(Nc2ccnnc2)c2ncn(C(C)C)c2n1 ; its IC50 = 6

# compound CC(C)[C@@H](CO)Nc1nc(Nc2cncnc2)c2ncn(C(C)C)c2n1 ; its IC50 = 16

# compound CC(C)[C@H](CO)Nc1nc(Nc2cccnc2)c2ncn(C(C)C)c2n1 ; its IC50 = 7.3

# compound CC(C)n1cnc2c(Nc3ccncc3)nc(Cl)nc21 ; its IC50 = 18

# compound CC[C@H](CO)Nc1nc(Nc2ccnnc2)c2ncn(C(C)C)c2n1 ; its IC50 = 13

# compound CC(C)[C@@H](CO)Nc1nc(Nc2ccncc2)c2ncn(C(C)C)c2n1 ; its IC50 = 7.8

# compound CC[C@@H](CO)Nc1nc(Nc2ccncc2)c2ncn(C(C)C)c2n1 ; its IC50 = 6
